Assay: MTT cytotoxicity assay, WI-38 normal cells
Format: cell-based
Conditions: human, WI-38 normal lung fibroblast cells, 48 h treatment, read-out: Cytotoxicity IC50 WI38
quantity measured: IC50 at 48 h (µM)
The reply should contain only the number, in µM.

Asked: IC50 at 48 h for CCC=CCCOC1OC(CO)C(O)C(O)C1O [Compound 1, (Z)-3-hexenyl-β-D-glucopyranoside] ?
Given back: 194

###

Tested on: WI-38 (normal lung fibroblast cells)
Test: MTT cytotoxicity assay, WI-38 normal cells
Type: cell-based
Settings: 48 h treatment, read-out: Cytotoxicity IC50 WI38
quantity measured: IC50 (µM)
The reply should contain only the number, in µM.

Asked: IC50 for CCC=CCCOC1OC(CO)C(O)C(O)C1O [Compound 1, (Z)-3-hexenyl-β-D-glucopyranoside] ?
Given back: 195

The values you see were collected from paper PMC10933169.
